- Method Notes: wn = mass fraction of the nth substance listed
- Condition Details: 318.15 K; 101 kPa; Liquid; Concentric cylinders viscometry; w1 = 0.2
# viscosity per entry
Value Kind: viscosity (mPa·s)

Molecule: OCCNCCO [diethanolamine] + O
Value Kind: viscosity
Unit Abbreviation: mPa·s
Reading: 1.161
--
Molecule: CC(O)CN (centres undefined) [1-amino-2-propanol] + O
Value Kind: viscosity
Unit Abbreviation: mPa·s
Reading: 1.155
--
Molecule: CC(O)CN(CC(C)O)CC(C)O (centres undefined) [triisopropanolamine] + O
Value Kind: viscosity
Unit Abbreviation: mPa·s
Reading: 1.257
--
Molecule: CC(O)CNCC(C)O (centres undefined) [N-(2-hydroxypropyl)-2-hydroxy-1-propanamine] + O
Value Kind: viscosity
Unit Abbreviation: mPa·s
Reading: 1.313
